# EXPERIMENT: Plasma concentration in po dosed patient after 6 days by HPLC analysis
# Type: ADME, organism-based
# ASSAY_CONTEXT: human

MOLECULE: C[C@@H](c1ncncc1F)[C@](O)(Cn1cncn1)c1ccc(F)cc1F [VORICONAZOLE]
concentration at 144 h: < 120 ng/mL
